Form field: pKi (one value per entry).
experimental target: UniProt:P31391
Sequence (P31391 whole entry): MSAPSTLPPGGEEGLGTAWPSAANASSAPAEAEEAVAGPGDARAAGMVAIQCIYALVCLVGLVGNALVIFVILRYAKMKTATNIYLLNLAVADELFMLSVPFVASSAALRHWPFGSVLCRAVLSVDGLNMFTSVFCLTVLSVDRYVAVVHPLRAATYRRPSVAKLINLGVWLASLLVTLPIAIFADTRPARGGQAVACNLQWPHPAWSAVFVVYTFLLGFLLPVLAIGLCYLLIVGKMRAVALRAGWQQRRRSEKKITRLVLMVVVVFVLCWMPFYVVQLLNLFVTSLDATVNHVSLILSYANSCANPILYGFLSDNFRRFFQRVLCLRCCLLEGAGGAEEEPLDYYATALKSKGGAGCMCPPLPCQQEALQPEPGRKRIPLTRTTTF
protocol details: Tested for binding affinity at human Somatostatin receptor type 4 using ([3-125I-Tyr11)]-SRIF-14 as the radioligand
// returns pKi (minus log10 of molar concentration), number only

[[record]]
smiles_string = "NCCCCCOC[C@H]1O[C@@H](OCCc2c[nH]c3ccccc23)[C@H](OCc2ccccc2)[C@@H](OCc2ccccc2)[C@@H]1OCc1ccncc1"
experimental_target = "UniProt:P31391"
readout = "pKi"
result_value = 6.24


Switching to the query record.
Prompt line: Reported pKi for NCCCCCOC[C@H]1O[C@@H](OCCc2c[nH]c3ccccc23)[C@H](OCc2ccccc2)[C@@H](OCc2ccccc2)[C@@H]1OCc1cnccn1 : what is it?
Response line: 6.59
